PROPERTY_MEASURED: IC50 (nM)
Report only the number, with the unit nM understood.

[in] Test system Cytochrome P450 2D6 (Homo sapiens); read-out IC50; what value for CNCC1(O)Cc2ccccc2C1Sc1ccccc1C (racemic) ?
[out] 400

[in] Test system Cytochrome P450 2D6 (Homo sapiens); read-out IC50; what value for CNC[C@]1(O)Cc2ccccc2[C@@H]1Oc1ccccc1C ?
[out] 2000

[in] Test system Cytochrome P450 2D6 (Homo sapiens); read-out IC50; what value for CNC[C@]1(O)Cc2ccccc2[C@@H]1Oc1ccccc1-c1cccc2ccccc12 ?
[out] 600

[in] Test system Cytochrome P450 2D6 (Homo sapiens); read-out IC50; what value for Cc1ccccc1OC1c2ccccc2CC1(O)CN (racemic) ?
[out] 4000

[in] Test system Cytochrome P450 2D6 (Homo sapiens); read-out IC50; what value for CNC[C@]1(O)Cc2ccccc2[C@@H]1Oc1ccc(F)cc1C ?
[out] 1500

[in] Test system Cytochrome P450 2D6 (Homo sapiens); read-out IC50; what value for CNC[C@@]1(O)Cc2ccccc2[C@H]1Oc1ccccc1C ?
[out] 2500

[in] Test system Cytochrome P450 2D6 (Homo sapiens); read-out IC50; what value for CNC[C@]1(O)Cc2ccccc2[C@@H]1Oc1ccccc1SC ?
[out] 1400

[in] Test system Cytochrome P450 2D6 (Homo sapiens); read-out IC50; what value for CNCC1(O)Cc2ccccc2C1Cc1ccccc1C (racemic) ?
[out] 900

[in] Test system Cytochrome P450 2D6 (Homo sapiens); read-out IC50; what value for CNC[C@]1(O)Cc2ccccc2[C@@H]1Oc1cccc(F)c1C ?
[out] 1500

[in] Test system Cytochrome P450 2D6 (Homo sapiens); read-out IC50; what value for CNC[C@]1(O)Cc2ccccc2[C@@H]1Oc1ccc(C)cc1C ?
[out] 6500

[in] Test system Cytochrome P450 2D6 (Homo sapiens); read-out IC50; what value for CCc1ccccc1O[C@H]1c2ccccc2C[C@@]1(O)CNC ?
[out] 800

[in] Test system Cytochrome P450 2D6 (Homo sapiens); read-out IC50; what value for CNC[C@]1(O)Cc2ccccc2[C@@H]1Oc1c(C)cccc1F ?
[out] 1000

[in] Test system Cytochrome P450 2D6 (Homo sapiens); read-out IC50; what value for CNCC1(O)Cc2ccccc2C1Oc1ccccc1C (racemic) ?
[out] 2300

[in] Test system Cytochrome P450 2D6 (Homo sapiens); read-out IC50; what value for CNC[C@]1(OC)Cc2ccccc2[C@@H]1Oc1ccccc1C ?
[out] 5000

[in] Test system Cytochrome P450 2D6 (Homo sapiens); read-out IC50; what value for CNC[C@]1(O)Cc2ccccc2[C@@H]1Oc1ccccc1OC ?
[out] 500

[in] Test system Cytochrome P450 2D6 (Homo sapiens); read-out IC50; what value for CNC[C@]1(O)Cc2ccccc2[C@@H]1Oc1cc(F)ccc1C ?
[out] 1000

[in] Test system Cytochrome P450 2D6 (Homo sapiens); read-out IC50; what value for CNC[C@]1(O)Cc2ccccc2[C@@H]1Oc1cccc(C)c1C ?
[out] 4000

[in] Test system Cytochrome P450 2D6 (Homo sapiens); read-out IC50; what value for CCNCC1(O)Cc2ccccc2C1Oc1ccccc1C (racemic) ?
[out] 1300

[in] Test system Cytochrome P450 2D6 (Homo sapiens); read-out IC50; what value for Cc1ccccc1O[C@H]1c2ccccc2C[C@@]1(O)CN ?
[out] 3300

[in] Test system Cytochrome P450 2D6 (Homo sapiens); read-out IC50; what value for CNC[C@]1(O)Cc2ccccc2[C@@H]1Oc1ccccc1Cl ?
[out] 2000

[in] Test system Cytochrome P450 2D6 (Homo sapiens); read-out IC50; what value for CNC[C@]1(O)Cc2ccccc2[C@@H]1Oc1ccccc1F ?
[out] 4000
